test system: CRL-7250; assay: Cytotoxic Profiling of Annotated Libraries Using Quantitative High-Throughput Screening (AID 1296008); conditions: Five cell lines viability, CellTiter-Glo ATP luminescence, 48-72 h; stronger effect = lower value; note: nearly all actives have a fitted effect of over 60% in size; for max response: % is set by controls: 0 for no effect and ±100 for the full control effect
Inconclusive results are not listed. Where a SMILES comes first, the peptide text is derived from it. The star is where a group is joined. AMC = Cc1cc(=O)oc2cc(N*)ccc12; Cbz = O=C(OCc1ccccc1)*
METRIC_NAME: max response (%)

1. COC(=O)[C@]1(Cc2ccc(O)c(CC=C(C)C)c2)OC(=O)C(O)=C1c1ccc(O)cc1 : 1.22
2. Cc1cc(=O)oc2cc(NC(=O)[C@H](CCC(=O)O)NC(=O)[C@H](CC(C)C)NC(=O)[C@H](CC(C)C)NC(=O)OCc3ccccc3)ccc12 (Cbz-Leu-Leu-Glu-{AMC}) : -3.16
3. CC1(C)C=Cc2c(ccc3c2[N+]([O-])=C2C3(O)CC34NC(=O)C5(CCCN5C3=O)CC4C2(C)C)O1 (stereo not drawn) : -1.3

###

system: NIH3T3; test: qHTS assay to identify novel small-molecules to repurpose for Merkel cell carcinoma treatment (AID 1296009); conditions: MCC and control cell lines, CellTiter-Glo viability, 72 h; at 44.8 µM (top of the series) unless noted; note: nearly all actives have a fitted effect of over 60% in size
Inconclusive results are not listed. Activity calls are given as the source filed them. Calls come from the whole dose curve; as a rule, active = well fitted inhibition curve with a large enough effect; inconclusive = small, poorly fitted or top-dose-only effect; inactive = flat fitted curve, though single readings scatter.
METRIC_NAME: outcome

1. CC(C)=CCC[C@@](C)(O)[C@H]1CC[C@]2(C)[C@@H]1[C@H](O)CC1[C@@]3(C)CC[C@H](O[C@@H]4O[C@H](CO)[C@@H](O)[C@H](O)[C@H]4O[C@@H]4O[C@H](CO)[C@@H](O)[C@H](O)[C@H]4O)C(C)(C)[C@@H]3CC[C@]12C (some centres not stated) : inactive [at 17.4 µM]
2. C=C(C)[C@@H]1CC[C@]2(C(=O)O)CC[C@]3(C)C(CCC4[C@]5(C)C(CC[C@]43C)C(C)(C)[C@@H](O)[C@@H]5C(=O)O)C12 (some centres not stated) : inactive [at 17.4 µM]
3. CC(C)Oc1ccc(-c2nc(-c3cccc4c3CCC4NCCC(=O)O)no2)cc1C#N (configuration not stated) : inactive
4. CCCC1=CC2=C(CO1)C(=O)C(C)(O)C(OC(=O)c1c(C)cc(OC)cc1O)C2 (configuration not stated) : inactive [at 17.4 µM]
5. Cc1c(Cc2ccc3ccccc3n2)c2cc(F)ccc2n1CC(=O)O : inactive
6. COCCN1CCC(C(=O)NO)(S(=O)(=O)c2ccc(Oc3ccc(OC(F)(F)F)cc3)cc2)CC1 : inactive

###

test system: HaCat; test: Cytotoxic Profiling of Annotated Libraries Using Quantitative High-Throughput Screening (AID 1296008); settings: Five cell lines viability, CellTiter-Glo ATP luminescence, 48-72 h; stronger effect = lower value; note: nearly all actives have a fitted effect of over 60% in size; for max response: % is set by controls: 0 for no effect and ±100 for the full control effect
Results filed as inconclusive are left out. Active and inactive are the calls of the source. Calls come from the whole dose curve; as a rule, active = well fitted inhibition curve with a large enough effect; inconclusive = small, poorly fitted or top-dose-only effect; inactive = flat fitted curve, though single readings scatter.
METRIC_NAME: max response

1) CCCN(CCN1CCN(c2ccccc2OC)CC1)C1CCc2ncsc2C1 (stereo not drawn) : -2.7% (inactive)
2) O=C(/C=C/c1ccc(O)cc1)OC[C@H]1O[C@H](O[C@@]2(CO)O[C@@H](CO)[C@H](O)[C@H]2O)[C@H](O)[C@@H](O)[C@@H]1O : 1.8% (inactive)
3) C=C1C2CCC3C(CCC4[C@@]3(C)CCC[C@@]4(C)C(=O)O)(C2)[C@@H]1OC(=O)/C(C)=C\C (stereo partly drawn) : -0.634% (inactive)
4) Fc1cccc(CN(C2=NCCN2)c2c(Cl)cccc2Cl)c1 : 0.445% (inactive)
5) COc1cccc(CNc2ccc(S(=O)(=O)Nc3nc4ccccc4s3)cc2)c1O : -8.64% (inactive)
6) CC1(C)CC[C@]2(C(=O)O)CC[C@]3(C)C(=CCC4[C@@]5(C)C(=O)C[C@H](O)[C@@](C)(CO)C5CC[C@]43C)[C@@H]2C1 (stereo partly drawn) : -1.1% (inactive)
7) C=C1C(=O)OC2CC(COC(=O)C(C)C)=C(C(C)CCCOC(C)=O)[C@@H](OC(C)=O)C12 (stereo partly drawn) : 4.28% (inactive)
8) CNc1nc(Cc2ccccc2)nc2c1CCNC[C@@H]2C : -17.6% (inactive)
9) COc1ccc(-n2c(=O)[nH]c3cc(C(=O)NCc4ccc(Cl)cc4)sc3c2=O)nc1OC : -5.79% (inactive)
10) CC1(C)CC[C@]2(C(=O)O[C@@H]3O[C@H](CO)[C@@H](O)[C@H](O)[C@H]3O)CC[C@]3(C)C(=CCC4[C@@]5(C)C[C@@H](O)[C@H](O)[C@@](C)(CO)C5[C@H](O)C[C@]43C)C2[C@@H]1O (stereo partly drawn) : 1.4% (inactive)
11) C=C1C[C@@]2(O)O[C@@]3(C[C@H]2C(C)C)[C@@H](C)CC[C@@H]13 : -13.2% (inactive)
12) COc1ccc(C2C(C(=O)O)C(C(=O)O)C2c2ccc(OC)cc2O[C@@H]2O[C@H](CO)[C@@H](O)[C@H](O)[C@H]2O)c(O[C@@H]2O[C@H](CO)[C@@H](O)[C@H](O)[C@H]2O)c1 (stereo partly drawn) : 0.767% (inactive)
13) CC(=O)Nc1cccc2c1c(Sc1ccc(Cl)cc1)c(C)n2CC(=O)O : -2.39% (inactive)

###

molecular target: Guanidinoacetate N-methyltransferase (Homo sapiens) (UniProt Q14353); assay: Confirmatory Screen for Target Class Profiling of Small Molecule Inhibitors of Methyltransferases (AID 1745852); settings: MTase-Glo luminescence, SAH detection, recombinant enzyme; at 57.3 µM (top of the series) unless noted; note: % is set by controls: 0 for no effect and ±100 for the full control effect
METRIC_NAME: activity change, negative = inhibition (% [at 29.8 µM])

1. C/C(=C\CC/C(C)=C/CC[C@]1(C)CCc2cc(O)cc(C)c2O1)CC/C=C(\C)C(=O)O : 0
2. COc1c2c(c(C)c3c1C(=O)OC3)OC1(C)CC(O)C34OC(OC)(CC(O)C3(C)C1C2)OC4(C)C (stereo unspecified) : -2.68
3. CC(=O)OC1CC(=O)C2(C)C3CC4=C(OC(C)CC4=O)OC3(C)CCC2C1(C)C (stereo unspecified) : 0.0637
4. CC(C)(O)C1CC=C(C(=O)OC[C@H]2O[C@@H](Oc3cc(C(=O)O)cc(O)c3O)[C@H](O)[C@@H](O)[C@@H]2O)CC1 (stereo partly specified) : -6.92

###

test system: HEK293; assay: Cytotoxic Profiling of Annotated Libraries Using Quantitative High-Throughput Screening (AID 1296008); details: Five cell lines viability, CellTiter-Glo ATP luminescence, 48-72 h; note: nearly all actives have a fitted effect of over 60% in size
Records with an inconclusive call do not appear. Activity calls are given as the source filed them. Calls follow the shape of the dose curve; as a rule, active = well fitted inhibition curve with a large enough effect; inconclusive = small, poorly fitted or top-dose-only effect; inactive = flat fitted curve, though single readings scatter. Where a SMILES comes first, the peptide text is derived from it.
Outcomes: Yes for active, No for inactive

1) O=C1C[C@@]2(C(=O)N1)C(=O)N(Cc1ccc(Br)cc1F)C(=O)c1cccn12 : No
2) C=C[C@@](C)(CCC=C(C)C)O[C@@H]1O[C@H](CO[C@@H]2OC[C@H](O)[C@H](O)[C@H]2O)[C@@H](O)[C@H](O)[C@H]1O : No
3) CC(=O)NC(Cc1ccccc1)C(=O)NC(C(=O)O)C(C)C (stereo not drawn) (Ac-Phe-Val-OH; configuration not given here) : No
4) FC(F)(F)c1nnc2c(Sc3ccccc3)nc3ccc(Cl)cc3n12 : Yes
5) COc1cc(Cc2cnc(N)nc2N)c(C(C)C)cc1OC : No
6) CN(C)C(=O)C(O)C(Cc1ccccc1)NC(=O)c1cc2cc(Cl)ccc2[nH]1 (centres undefined) : No
7) C=C(C)[C@H]1CC[C@]2(C(=O)O)CC[C@]3(C)C(CCC4[C@@]5(C)CCC(=O)C(C)(C)C5CC[C@]43C)C12 (some centres undefined) : Yes
8) COC(=O)C1C(O)CCC2CN3CCc4c([nH]c5ccccc45)C3CC21 (centres undefined) : No
9) C[C@@H]1C(=O)O[C@H](C)[C@H]1C[C@@H](O)[C@](C)(O)[C@H]1CC[C@@]2(O)C3=CC(=O)[C@@H]4C[C@@H](O)[C@@H](O)C[C@]4(C)C3CC[C@]12C (some centres undefined) : No

###

test system: KB-3-1; experiment: Cytotoxic Profiling of Annotated Libraries Using Quantitative High-Throughput Screening (AID 1296008); settings: Five cell lines viability, CellTiter-Glo ATP luminescence, 48-72 h; stronger effect = lower value; note: nearly all actives have a fitted effect of over 60% in size; for max response: % is set by controls: 0 for no effect and ±100 for the full control effect
Results filed as inconclusive are left out.
Each entry below lists one item and its recorded max response value.
METRIC_NAME: max response (%)

1. CCCC(C(=O)O)c1c(C)nc2ccc(Cl)cc2c1-c1ccccc1 (configuration not stated) : 2.25
2. C[C@]12CCC[C@](C)(C(=O)O)C1CCC13CC(CO)C(CCC12)C3 (some centres not stated) : 8.03
3. O=C(NC1CCN(CC(F)(F)F)CC1)c1ccc(-c2cccc(F)c2)nc1 : -3.14
4. CC[C@@H](C)[C@H](N)C(=O)N1Cc2ccccc2C1 : -3.64
5. CN1CCN(c2nc(-c3ccc(C(=O)NC4(C(=O)NCC#N)CCCCC4)cc3)cs2)CC1 : -9.9
6. COC(=O)c1ccccc1O[C@@H]1O[C@H](CO[C@@H]2OC[C@@H](O)[C@H](O)[C@H]2O)[C@@H](O)[C@H](O)[C@H]1O : -2.26
7. CN(C)CCC[C@]1(c2ccc(F)cc2)OCc2cc(C#N)ccc21 : -2.48
